Where do these numbers come from? They come from PubChem BioAssay (NCATS).

# Assay explanation: Identifying Small Molecule Inhibitors of Pancreatic Cancer Stem Cells (A278, Adherent) (AID 1259361);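 also: viability read after 48 h compound exposure; nearly all actives have a fitted effect of over 35% in size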
# Condition notes: series mostly up to 46.1 µM
Records with an inconclusive call do not appear. Active and inactive are the calls of the source. Calls follow the shape of the dose curve; as a rule, active = well fitted cell-killing curve with a large enough effect; inconclusive = small, poorly fitted or top-dose-only effect; inactive = flat fitted curve, though single readings scatter.
Outcome codes: active, inactive

>  <Chemical string>
COC(=O)c1ccc2c(C(=Nc3ccc(N(C)C(=O)CN4CCN(C)CC4)cc3)c3ccccc3)c(O)[nH]c2c1

>  <Answer label>
active

$$$$
>  <Chemical string>
c1ccc2c(CCNc3ccc(Nc4ccncc4)cc3)c[nH]c2c1

>  <Answer label>
active

$$$$
>  <Chemical string>
C#Cc1cccc(Nc2ncnc3cc(OC)c(OCCCCCCC(=O)NO)cc23)c1

>  <Answer label>
active

$$$$
>  <Chemical string>
COc1cc(=C2C=c3ccccc3=N2)[nH]c1=Cc1[nH]c(C)cc1C

>  <Answer label>
active

$$$$
>  <Chemical string>
CC[C@@H]1C(=O)N(C)c2cnc(Nc3ccc(C(=O)NC4CCN(C)CC4)cc3OC)nc2N1C1CCCC1

>  <Answer label>
active

$$$$
>  <Chemical string>
CCN(CC)CCCCNc1ncc2cc(-c3cc(OC)cc(OC)c3)c(NC(=O)NC(C)(C)C)nc2n1

>  <Answer label>
active

$$$$
>  <Chemical string>
Nc1ccccc1NC(=O)c1ccc(CNc2nccc(-c3cccnc3)n2)cc1

>  <Answer label>
active

$$$$
>  <Chemical string>
COC(=O)[C@]12CCC(C)(C)C[C@@H]1[C@@H]1C(=O)C=C3[C@@]4(C)C=C(C#N)C(=O)C(C)(C)[C@@H]4CC[C@@]3(C)[C@]1(C)CC2

>  <Answer label>
active

$$$$
>  <Chemical string>
CC(=O)OCCN1C(=O)c2c(C)nc3ccc(S(=O)(=O)N4CCOCC4)cc3c2C1=O

>  <Answer label>
inactive

$$$$
>  <Chemical string>
Nc1nccc(Oc2ccc(NC(=O)c3c[nH]cc(-c4ccc(F)cc4)c3=O)cc2F)c1Cl

>  <Answer label>
active

$$$$
>  <Chemical string>
O=C(C=Cc1cccnc1)NCCCCC1CCN(C(=O)c2ccccc2)CC1

>  <Answer label>
inactive

$$$$
>  <Chemical string>
Cc1ccc(-c2ncn(-c3ccc(Nc4nccc(-c5cccc(N6CCOCC6)c5)n4)cc3)n2)cn1

>  <Answer label>
active

$$$$

----------
# Assay explanation: qHTS of pediatric cancer cell lines to identify multiple opportunities for drug repurposing: Confirmatory screen for MG 63 (6-TG R) cells (AID 1347119); also: nearly all actives have a fitted effect of over 55% in size; also: potency is read from the fitted curve at half-maximal effect
# Condition notes: MG-63 (6-TG resistant) osteosarcoma viability; series mostly up to 45.9 µM
Inconclusive results are not listed. Calls of active or inactive are those of the source. Calls follow the shape of the dose curve; as a rule, active = well fitted cell-killing curve with a large enough effect; inconclusive = small, poorly fitted or top-dose-only effect, or effect the other way; inactive = no such curve, though single readings can be large or run the other way.
Endpoint: Potency

>  <Compound>
CC(C)c1cnn2c(NCc3ccccc3)cc(N[C@@H](CO)[C@H](O)CO)nc12

>  <Val>
0.827 µM (active)

$$$$
>  <Compound>
C#Cc1cccc(Nc2ncnc3cc(OC)c(OCCCCCCC(=O)NO)cc23)c1

>  <Val>
0.851 µM (active)

$$$$
>  <Compound>
Cc1c(CN2CCN(S(C)(=O)=O)CC2)sc2c(N3CCOCC3)nc(-c3cnc(N)nc3)nc12

>  <Val>
0.329 µM (active)

$$$$
>  <Compound>
COc1cccc2nc(-c3cccs3)nc(NN3C(=O)C=C(C)C3=O)c12

>  <Val>
2.93 µM (active)

$$$$
>  <Compound>
COC(=O)Nc1ccc(-c2nc(N3CCOCC3)c3cnn(C4CCN(Cc5cccnc5)CC4)c3n2)cc1

>  <Val>
1.85 µM (active)

$$$$
>  <Compound>
C=C1C(=CC=C2CCC[C@]3(C)[C@@H]([C@H](C)C=C[C@H](C)C(C)C)CC[C@@H]23)C[C@@H](O)C[C@@H]1O

>  <Val>
2.93 µM (active)

$$$$
>  <Compound>
Cc1ccc(NC(=O)C2(c3ccc4c(c3)OC(F)(F)O4)CC2)nc1-c1cccc(C(=O)O)c1

>  <Val>
inactive

$$$$
>  <Compound>
O=c1[nH]nc(Sc2ncc([N+](=O)[O-])s2)n1-c1ccc2c(c1)OCCO2

>  <Val>
11.7 µM (active)

$$$$
>  <Compound>
O=C(Nc1cc(C(F)(F)F)cc(C(F)(F)F)c1)c1cc(Cl)ccc1O

>  <Val>
0.928 µM (active)

$$$$
>  <Compound>
Cc1c(C)n(Cc2ccc(-c3ccccc3C(=O)O)cc2)c2ccc(C(=O)N[C@@H](C)c3ccc([N+](=O)[O-])cc3)cc12

>  <Val>
inactive

$$$$
>  <Compound>
Cc1ccc(C(=O)Nc2ccc(CN3CCN(C)CC3)c(C(F)(F)F)c2)cc1C#Cc1cnc2cccnn12

>  <Val>
inactive

$$$$
>  <Compound>
Cc1ccc(C(N)=O)cc1Nc1nccc(-c2cn(C(C)C)c3cnccc23)n1

>  <Val>
inactive

$$$$
>  <Compound>
CC(C)(C)NC(=O)[C@H]1CN(Cc2cccnc2)CCN1C[C@@H](O)C[C@@H](Cc1ccccc1)C(=O)N[C@H]1c2ccccc2C[C@H]1O

>  <Val>
23.3 µM (active)

$$$$
>  <Compound>
C=CC(=O)Nc1cccc(Oc2nc(Nc3ccc(N4CCN(C)CC4)cc3)ncc2Cl)c1

>  <Val>
2.93 µM (active)

$$$$
>  <Compound>
CNC(=O)CN1CCC(Oc2cc3c(Nc4cccc(Cl)c4F)ncnc3cc2OC)CC1

>  <Val>
inactive

$$$$
>  <Compound>
COc1cccc(Nc2c(C(N)=O)cnc3c(C)cc(S(=O)(=O)c4cccc(C(=O)N(C)C)c4)cc23)c1

>  <Val>
inactive

$$$$
>  <Compound>
Cc1nc(N)ncc1-c1nc(N2CCOCC2)c2sc(C(C)(C)O)cc2n1

>  <Val>
0.465 µM (active)

$$$$
>  <Compound>
CCN1CCN(Cc2ccc(-c3cc4c(N[C@H](C)c5ccccc5)ncnc4[nH]3)cc2)CC1

>  <Val>
13.5 µM (active)

$$$$
>  <Compound>
COCCn1c2c([n+](Cc3cnccn3)c1C)C(=O)c1ccccc1C2=O

>  <Val>
0.0737 µM (active)

$$$$
>  <Compound>
CC[C@@H]1C(=O)N(C)c2cnc(Nc3ccc(C(=O)NC4CCN(C)CC4)cc3OC)nc2N1C1CCCC1

>  <Val>
0.0928 µM (active)

$$$$
>  <Compound>
CC(NCc1ccc2c(c1)nc(NC(=O)c1ccc(-c3cn[nH]c3)s1)n2CC(C)(C)O)C(C)(C)C (stereo not given)

>  <Val>
1.31 µM (active)

$$$$
>  <Compound>
Cc1cc(Nc2cc(N3CCN(C)CC3)nc(Sc3ccc(NC(=O)C4CC4)cc3)n2)n[nH]1

>  <Val>
2.61 µM (active)

$$$$
>  <Compound>
CC(=O)OCC(=O)[C@@]1(O)[C@H](C)C[C@H]2[C@@H]3C=C(C)C4=Cc5c(cnn5-c5ccccc5)C[C@]4(C)[C@@H]3[C@@H](O)C[C@@]21C

>  <Val>
18.5 µM (active)

$$$$
>  <Compound>
CC(C)[C@H](C(=O)Nc1ccc(C(=O)NO)cc1)c1ccccc1

>  <Val>
0.657 µM (active)

$$$$
>  <Compound>
COc1cccc2c(NCc3ccccc3)nc(-n3c(N)nc4ccccc43)nc12

>  <Val>
5.85 µM (active)

$$$$
>  <Compound>
COc1ccc(-c2cc3c(C)nc(N)nc3n(C3CCC(OCCO)CC3)c2=O)cn1 (stereo not given)

>  <Val>
inactive

$$$$
>  <Compound>
Nc1cc(C(F)(F)F)c(-c2cc(N3CCOCC3)nc(N3CCOCC3)n2)cn1

>  <Val>
3.69 µM (active)

$$$$
>  <Compound>
CN(C)Cc1c(C(=O)NCCOc2ccc(C(=O)NO)cc2)oc2ccccc12

>  <Val>
1.47 µM (active)

$$$$
>  <Compound>
O=C(Nc1ncc(-c2cc(C(F)F)nn2-c2c(Cl)cccc2Cl)s1)C1CC1

>  <Val>
0.329 µM (active)

$$$$
>  <Compound>
COc1cc2c(Oc3ccc(-c4cnc(Nc5ccc(F)cc5)n(C)c4=O)cc3F)ccnc2cc1OCCCN1CCOCC1

>  <Val>
2.93 µM (active)

$$$$
